So I've got a bunch of compounds here, and I need their inhibition at 5000 µg/mL values.
biological target: human recombinant β-glucocerebrosidase (Cerezyme) (Homo sapiens, UniProt P04062, R534H); construct: purchased Genzyme, Europe; assay: β-glucocerebrosidase assay (Cerezyme/imiglucerase, PNP β-glucopyranoside, pH 5.9); assay type: biochemical; settings: Conc 5 mg/ml; pH 5.9; negative value = activation
Sequence (P04062 40-536 R534H): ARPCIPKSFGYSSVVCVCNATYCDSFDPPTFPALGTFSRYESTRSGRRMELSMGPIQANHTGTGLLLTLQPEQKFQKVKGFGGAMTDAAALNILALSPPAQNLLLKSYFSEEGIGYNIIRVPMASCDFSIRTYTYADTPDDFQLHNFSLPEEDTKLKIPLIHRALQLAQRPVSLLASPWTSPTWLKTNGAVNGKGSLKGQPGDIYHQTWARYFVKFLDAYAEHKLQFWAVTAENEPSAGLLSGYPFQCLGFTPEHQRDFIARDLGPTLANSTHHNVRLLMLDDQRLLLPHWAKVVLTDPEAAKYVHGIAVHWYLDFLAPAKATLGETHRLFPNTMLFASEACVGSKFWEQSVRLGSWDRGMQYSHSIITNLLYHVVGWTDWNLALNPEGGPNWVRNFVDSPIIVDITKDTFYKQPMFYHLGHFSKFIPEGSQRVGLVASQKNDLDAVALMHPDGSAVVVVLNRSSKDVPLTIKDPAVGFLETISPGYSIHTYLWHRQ
Response body: numeric value in %, unit text excluded.

What measured inhibition at 5000 µg/mL goes with C[n+]1cccc(C(=O)[O-])c1 ?
-12.6

What measured inhibition at 5000 µg/mL goes with O=c1cc[nH]c(=O)[nH]1 ?
4.5

What measured inhibition at 5000 µg/mL goes with NC(=O)c1cccnc1 [nicotinamide] ?
-11.3

What measured inhibition at 5000 µg/mL goes with O=c1c(O)c(-c2ccc(O)c(O)c2)oc2cc(O)cc(O)c12 ?
39.4

What measured inhibition at 5000 µg/mL goes with O=C(O)/C=C/c1ccc(O)c(O)c1 ?
-1.8

What measured inhibition at 5000 µg/mL goes with O=C(O)c1cccnc1 ?
-12.7

What measured inhibition at 5000 µg/mL goes with O=C(/C=C/c1ccc(O)c(O)c1)O[C@@H]1C[C@](O)(C(=O)O)C[C@@H](O)[C@H]1O ?
57.1

meta.source: patent US20250160350A1
